# Tested on: ZIF-ZnF-GAC (serine-finger linker) (artificial)
# Experimental protocol: EMSA
# Measurement setup: apparent Kd
pKd: −log10 of the molar value.
Observable: pKd

> print(dat)
                            primary.sequence                         system.under.test  observable  reported.result
 1  GCGGACGCGNNNNNNNNGCGTGGGCG (double strand) [Z8M]  ZIF-ZnF-GAC (serine-finger linker) (artificial)         pKd            11.22
 2  GCGGACGCGNNNNNGCGTGGGCG (double strand) [Z5M]  ZIF-ZnF-GAC (serine-finger linker) (artificial)         pKd            11.10
 3  GCGGACGCGNNNNNNNNNGCGTGGGCG (double strand) [Z9M]  ZIF-ZnF-GAC (serine-finger linker) (artificial)         pKd            11.40
 4  GCGGACGCGNNNNNNNGCGTGGGCG (double strand) [Z7M]  ZIF-ZnF-GAC (serine-finger linker) (artificial)         pKd            11.52
 5  GCGGACGCGNNNNNNGCGTGGGCG (double strand) [Z6M]  ZIF-ZnF-GAC (serine-finger linker) (artificial)         pKd            11.15
 6  GCGGACGCGNGCGTGGGCG (double strand) [Z1M]  ZIF-ZnF-GAC (serine-finger linker) (artificial)         pKd            11.40
 7  GCGGACGCGNNNNGCGTGGGCG (double strand) [Z4M]  ZIF-ZnF-GAC (serine-finger linker) (artificial)         pKd            11.52
 8  GCGGACGCGNNNNNNNNNNGCGTGGGCG (double strand) [Z10M]  ZIF-ZnF-GAC (serine-finger linker) (artificial)         pKd            11.52
 9  GCGGACGCGNNNGCGTGGGCG (double strand) [Z3M]  ZIF-ZnF-GAC (serine-finger linker) (artificial)         pKd            11.40
10  GCGGACGCGNNGCGTGGGCG (double strand) [Z2M]  ZIF-ZnF-GAC (serine-finger linker) (artificial)         pKd            11.22

====

# Tested on: 3x2F ZGS (artificial)
# Sequence (chain, as listed by the source): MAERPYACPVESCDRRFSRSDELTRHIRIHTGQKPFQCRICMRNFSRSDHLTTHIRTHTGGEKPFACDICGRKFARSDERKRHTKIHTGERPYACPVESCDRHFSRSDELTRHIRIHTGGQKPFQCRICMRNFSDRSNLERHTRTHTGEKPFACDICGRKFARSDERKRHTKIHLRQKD
# Experimental protocol: EMSA
# Measurement setup: apparent Kd; half-site; hard to quantify
Observable: Kd (nM)

> print(dat)
                           primary.sequence  observable  reported.result
1  GCGTGGGCG (double strand) [bsA (ZIF site)]          Kd              110

====

# System under test: TF(1-3)-flex-ZIF (linker TG(GSG)5ERP) (artificial) (UniProt P03001+P08046)
# Experimental protocol: EMSA
# Measurement setup: apparent Kd; half-site
Observable: Kd (nM)

> print(dat)
                           primary.sequence  observable  reported.result
1  GCGTGGGCG (double strand) [bsA (ZIF site)]          Kd              1.8

====

# System under test: ZIF-F4-GAC (TFIIIA finger 4 linker) (artificial) (UniProt P08046)
# Experimental protocol: EMSA
# Measurement setup: apparent Kd
pKd: −log10 of the molar value.
Reported pKd values for a set of sequences
Observable: pKd

> print(dat)
                            primary.sequence  observable  reported.result
 1  GCGGACGCGNGCGTGGGCG (double strand) [Z1M]         pKd            11.22
 2  GCGGACGCGNNGCGTGGGCG (double strand) [Z2M]         pKd            11.15
 3  GCGGACGCGGCGTGGGCG (double strand) [bsC (123456, ZM)]         pKd            10.96
 4  GCGGACGCGNNNGCGTGGGCG (double strand) [Z3M]         pKd            11.30
 5  GCGGACGCGNNNNNGCGTGGGCG (double strand) [Z5M]         pKd            10.80
 6  GCGGACGCGNNNNGCGTGGGCG (double strand) [Z4M]         pKd            10.89
 7  GCGGACGCGNNNNNNNNNNGCGTGGGCG (double strand) [Z10M]         pKd            11.40
 8  GCGGACGCGNNNNNNNNGCGTGGGCG (double strand) [Z8M]         pKd            11.30
 9  GCGGACGCGNNNNNNNGCGTGGGCG (double strand) [Z7M]         pKd            11.30
10  GCGGACGCGNNNNNNGCGTGGGCG (double strand) [Z6M]         pKd            10.77
11  GCGGACGCGNNNNNNNNNGCGTGGGCG (double strand) [Z9M]         pKd            11.30

====

# Tested on: ZIF-ZnF-GAC (serine-finger linker) (artificial)
# Experimental protocol: EMSA
# Measurement setup: apparent Kd; half-site
pKd: −log10 of the molar value.
Observable: pKd

> print(dat)
                           primary.sequence  observable  reported.result
1  GCGTGGGCG (double strand) [bsA (ZIF site)]         pKd             8.70

====

# System under test: TF(1-3)-flex-ZIF (linker TG(GSG)5ERP) (artificial) (UniProt P03001+P08046)
# Experimental protocol: EMSA
# Measurement setup: apparent Kd
Rule: Kd below 0.06 nM gives label 1, anything at or above gives label 0.

> print(dat)
                           primary.sequence    class
1  GCGTGGGCGAGTACCTGGATGGGAGAC (double strand) [TF7Z (bsC1)]  label 1
2  GCGTGGGCGTACCTGGATGGGAGAC (double strand) [TF5Z (bsA1)]  label 0
3  GCGTGGGCGTTAGTACCTGGATGGGAGAC (double strand) [TF9Z (bsE1)]  label 1
4  GCGTGGGCGGTACCTGGATGGGAGAC (double strand) [TF6Z (bsB1)]  label 0

====

# Tested on: 2x3F ZIF-GAC (artificial)
# Experimental protocol: EMSA
# Measurement setup: apparent Kd; half-site
Observable: Kd (nM)

> print(dat)
                           primary.sequence  observable  reported.result
1  GCGTGGGCG (double strand) [bsA (ZIF site)]          Kd              2.2

Where these numbers come from: patent US20030119023
